experiment: Toxicity against host mice (weight loss, death rate) in the HuH-7 antitumor test; type: in vivo; conditions: death rate during the test period; 250 μg/mouse intraperitoneally once per day for 3 weeks; six mice per group; as to Toxicity Death rate: key: −: none; +/−: death occurred with high concentration administration (500 µg/mouse); +: 1-3 mice dead; ++: 3-5 mice dead; +++: all 6 mice dead
assay_metric: Toxicity Death rate

Known results for compounds:
> print(dat)
                                   compound  endpoint.result
1  CC(=O)N[C@@H](Cc1ccc(O)cc1)C(=O)NC/C=C(\C)CCC=C(C)C [N-acetyltyrosine geranylamide, N-acetyltyrosine Geranylamide]                −
2  CC(C)=CCC/C(C)=C/CNC(=O)[C@@H](N)Cc1ccc(O)cc1 [Tyrosine geranylamide, Tyrosine Geranylamide]                −
3  CC(C)=CCC/C(C)=C/C(=O)N[C@@H](Cc1ccc(O)cc1)C(=O)O                −
4  CC(C)=CCC/C(C)=C/C(=O)NC1C(O)OC(C)C(O)C1O (stereo not drawn) [N-fucosegeranamide]                −
5  CC(C)=CCC/C(C)=C/CNC(=O)/C=C/C(=O)NC/C=C(\C)CCC=C(C)C [N,N′-digeranylfumaric diamide, N,N′-digeranylfumaric Diamide]                −

// query Given the compound CC(C)=CCC/C(C)=C/CNC(=O)C1OC(O)C(O)C(O)C1O (stereo not drawn) [N-geranyl galacturonamide, N-geranylgalacturonamide] , write its reported Toxicity Death rate.
// result +/−

====

test: Toxicity against host mice (weight loss, death rate) in the HuH-7 antitumor test; format: in vivo; conditions: mouse weight relative to control group (100%); 250 μg/mouse intraperitoneally once per day for 3 weeks; six mice per group
assay_metric: Toxicity Weight loss

Known results for molecules:
molecule	assay_metric	endpoint_result
CC(C)=CCC/C(C)=C/CNC(=O)/C=C/C(=O)NC/C=C(\C)CCC=C(C)C [N,N′-digeranylfumaric diamide, N,N′-digeranylfumaric Diamide]	Toxicity Weight loss	+/− (110˜100%)
CC(C)=CCC/C(C)=C/CNC(=O)[C@@H](N)Cc1ccc(O)cc1 [Tyrosine geranylamide, Tyrosine Geranylamide]	Toxicity Weight loss	+/− (110˜100%)
CC(O)(CCO)CC(=O)NC1C(O)OC(CO)C(O)C1O (stereo not shown)	Toxicity Weight loss	+/− (110˜100%)
CC(C)=CCC/C(C)=C/C(=O)NC1C(O)OC(C)C(O)C1O (stereo not shown) [N-fucosegeranamide]	Toxicity Weight loss	+/− (110˜100%)
CC(=O)N[C@@H](Cc1ccc(O)cc1)C(=O)NC/C=C(\C)CCC=C(C)C [N-acetyltyrosine geranylamide, N-acetyltyrosine Geranylamide]	Toxicity Weight loss	+/− (110˜100%)

// query Given the molecule CC(C)=CCC/C(C)=C/CNC(=O)C1OC(O)C(O)C(O)C1O (stereo not shown) [N-geranyl galacturonamide, N-geranylgalacturonamide] , write its reported Toxicity Weight loss.
// result +/− (110˜100%)

// query Given the molecule "CC(C)=CCC/C(C)=C/C(=O)N[C@@H](Cc1ccc(O)cc1)C(=O)O" , write its reported Toxicity Weight loss.
// result +/− (110˜100%)

// query Given the molecule CC(C)=CCC/C(C)=C/C(=O)NC1C(O)OC(CO)C(O)C1O (stereo not shown) , write its reported Toxicity Weight loss.
// result + (100˜95%)

// query Given the molecule CC(C)=CCC/C(C)=C/CNC(=O)CC(O)C(=O)NC/C=C(\C)CCC=C(C)C (stereo not shown) [N,N′-digeranylmalic diamide, N,N′-digeranylmalic Diamide] , write its reported Toxicity Weight loss.
// result + (100˜95%)
